Assay Method Text: refractive index (Na D-line) (dimensionless)
Reported Conditions: 298.15 K; 100 kPa; Liquid; Standard Abbe refractometry
Measured Property: refractive index

CCO [ethanol]
1.3598
CCCCO [butan-1-ol]
1.3975
CO [methanol]
1.3267
O [water]
1.3331
CN(C)C(=[NH2+])N(C)C.c1c[n-]cn1 [1,1,3,3-tetramethylguanidinium imidazol-1-ide]
1.4943
CCCO [propan-1-ol]
1.3836
